experimental.target: Corticotropin-releasing factor receptor 2/Corticotropin-releasing factor-binding protein (Homo sapiens, UniProt P24387+Q13324)
Sequence (Q13324 whole entry): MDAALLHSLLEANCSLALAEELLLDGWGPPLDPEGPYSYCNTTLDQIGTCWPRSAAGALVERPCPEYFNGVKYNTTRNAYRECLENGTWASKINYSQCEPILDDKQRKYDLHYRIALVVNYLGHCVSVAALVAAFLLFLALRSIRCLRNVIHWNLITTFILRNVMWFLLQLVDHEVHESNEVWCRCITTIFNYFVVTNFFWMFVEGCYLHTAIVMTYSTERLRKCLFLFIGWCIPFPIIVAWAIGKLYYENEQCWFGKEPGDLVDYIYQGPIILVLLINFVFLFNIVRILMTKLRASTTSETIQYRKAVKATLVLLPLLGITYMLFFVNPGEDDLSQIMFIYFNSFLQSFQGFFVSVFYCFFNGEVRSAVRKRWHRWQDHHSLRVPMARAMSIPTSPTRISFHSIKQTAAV
Sequence (P24387 whole entry): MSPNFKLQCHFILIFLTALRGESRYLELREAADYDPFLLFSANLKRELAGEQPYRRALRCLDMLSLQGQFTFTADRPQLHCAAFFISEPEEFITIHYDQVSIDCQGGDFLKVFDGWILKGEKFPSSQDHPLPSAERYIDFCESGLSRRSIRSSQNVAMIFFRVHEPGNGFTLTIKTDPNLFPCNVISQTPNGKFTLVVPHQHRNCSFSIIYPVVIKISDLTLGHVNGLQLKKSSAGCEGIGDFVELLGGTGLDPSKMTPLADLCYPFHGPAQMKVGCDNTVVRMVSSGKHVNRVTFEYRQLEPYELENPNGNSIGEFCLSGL
method.description: Dose Response confirmation of uHTS hits for small molecule antagonists of the CRF-binding protein and CRF-R2 receptor complex.
Type: functional
experimental.conditions: read-out: IC50_Mean
Active and inactive are the calls of the source. Cut-off read from the data, not from the text of the source: actives have a measured IC50 and inactives only a lower limit.
Possible outcomes: 1.0 = active, 0.0 = inactive

{"columns": ["compound", "group.label"],
 "data": [
  ["Cc1nc(CNS(=O)(=O)c2ccc3ccccc3c2)cs1", 0.0],
  ["CC(C)(C)c1ccc(SCCc2cccnc2)cc1", 0.0],
  ["Cc1cccc(NC(=O)c2cccc([N+](=O)[O-])c2O)c1C", 1.0],
  ["Cc1nn(C)c(Oc2ccc(Cl)cc2)c1C(=O)O", 0.0],
  ["CC1(C)CC(=O)C(C2C3=C(CC(C)(C)CC3=O)Oc3ccc4ccccc4c32)C(=O)C1 (centres undefined)", 1.0],
  ["CCOC(=O)NC(O)C(=O)c1cccs1 (centres undefined)", 0.0],
  ["O=C(O)C1C2C=CC(C2)C1C(=O)NCCc1cccc(Cl)c1 (centres undefined)", 0.0],
  ["C=CCN(c1ccccc1)S(=O)(=O)c1cccc(C(=O)O)c1", 0.0],
  ["CCCS(=O)(=O)N1CCCC(C(=O)NCCCN(CC)c2cccc(C)c2)C1 (centres undefined)", 0.0],
  ["N#Cc1c(Cl)nc2c(c1C#N)CCCC2", 0.0],
  ["O=C(NCCOc1ccccc1F)c1ccccc1SCc1ccc(F)cc1", 0.0],
  ["Cc1ccc(S(=O)(=O)N(CC(=O)NCc2ccco2)Cc2ccccc2F)cc1", 0.0],
  ["Cc1ccc(NC(S)=NCc2ccccn2)cc1", 0.0],
  ["Cc1[nH]n(CCC#N)c(=O)c1CC(=O)N1CCN(c2ccccc2)CC1", 0.0],
  ["COc1ccc(S(=O)(=O)N2CCCCCC2)cc1C(=O)NCCc1ccccc1", 0.0],
  ["CCCn1nc(C(=O)Nc2ccc3nc(C)sc3c2)c2ccccc2c1=O", 0.0],
  ["NS(=O)(=O)c1ccc(NC(S)=Nc2ccc(F)c(F)c2)cc1", 0.0],
  ["COc1c(Cl)cc(Cl)cc1CNc1ccc(S(N)(=O)=O)cc1", 0.0],
  ["O=C(C1CCN(C2CCN(CC3CC=CCC3)CC2)CC1)N1CCOCC1 (centres undefined)", 0.0]
]}
